# System: Zika virus NS2B-NS3 protease
# procedure.summary: Primary screen GU AMC qHTS for Zika virus inhibitors (AID 1347154); further: nearly all actives have a fitted effect of over 70% in size
# measurement.context: Zika NS2B-NS3 unlinked protease, AMC fluorogenic substrate; series mostly up to 54.1 µM
# Excerpt: Avindra Nath, Ph.D., National Institute of Neurological Disorders and Stroke (NINDS), Bethesda, MD Radhakrishnan Padmanabhan, Ph.D., Georgetown University (GU), Washington D.C. Zika Virus causes congenital defects, including microcephaly and is associated with Guillain-Barre syndrome, eningoencephalitis and myelitis in infected adult. […]
Inconclusive results are not listed. The source made the active and inactive calls. The call rests on the fitted dose curve; in most records, active means well fitted inhibition curve with a large enough effect; inconclusive means small, poorly fitted or top-dose-only effect; inactive means flat fitted curve, though single readings scatter.
// allowed return values: yes (1) for active, no (0) for inactive

Call for entry "Cc1ccc(N(CC2=NCCN2)c2cccc(O)c2)cc1" :
no (0)

Call for entry "Cc1csc(NC(=O)c2sc3nc4c(c(C(F)(F)F)c3c2N)CCC4)n1" :
no (0)

Call for entry "N[C@@H]1CONC1=O" :
no (0)

Call for entry "Clc1ccc(Nc2nnc(Cc3ccncc3)c3ccccc23)cc1" :
no (0)

Call for entry "COc1ccc(-c2ccc3c(N4CCOC[C@H]4C)nc(N4CCOC[C@H]4C)nc3n2)cc1CO" :
yes (1)

Call for entry CCC(C)n1ncn(-c2ccc(N3CCN(c4ccc(OC[C@H]5CO[C@](Cn6cncn6)(c6ccc(Cl)cc6Cl)O5)cc4)CC3)cc2)c1=O (stereo not given in full) :
no (0)

Call for entry "Cc1cc([C@@H](C)Nc2ccccc2C(=O)O)c2nc(N3CCOCC3)cc(=O)n2c1" :
no (0)

Call for entry "CCCc1nn(C)c2c(=O)[nH]c(-c3cc(S(=O)(=O)N4CCN(C)CC4)ccc3OCC)nc12" :
no (0)

Call for entry "COc1ccc([C@@H]2CC(=O)c3c(O)cc(O[C@@H]4O[C@H](CO[C@@H]5O[C@@H](C)[C@H](O)[C@@H](O)[C@@H]5O)[C@@H](O)[C@H](O)[C@@H]4O)cc3O2)cc1O" :
no (0)

Call for entry "Fc1ccc(Cl)cc1-c1nc(Nc2ccncc2)c2nccnc2n1" :
no (0)

Call for entry COc1ccc2nc(S(=O)Cc3ncc(C)c(OC)c3C)[nH]c2c1 (stereo not given) :
no (0)

Call for entry O=C1CCC(N2C(=O)c3ccccc3C2=O)C(=O)N1 (stereo not given) :
no (0)

Call for entry "CCOc1ccc(Cc2cc([C@@H]3O[C@H](CO)[C@@H](O)[C@H](O)[C@@H]3O)ccc2Cl)cc1" :
no (0)

Call for entry "CCOC(=O)C1=C[C@@]2(CC)CCCN3CCc4c(n1c1ccccc41)[C@H]32" :
no (0)

Call for entry "CC(C)(N)C(=O)N[C@H](COCc1ccccc1)C(=O)N1CCC2(CC1)CN(S(C)(=O)=O)c1ccccc12" :
no (0)

Call for entry "NNCCc1ccccc1" :
no (0)

Call for entry "COc1ccc(-c2ccc3c(N4CCOCC4)nc(N4C[C@@H](C)O[C@@H](C)C4)nc3n2)cc1CO" :
yes (1)

Call for entry "Cc1cc2c(F)c(Oc3ncnn4cc(OC[C@@H](C)O)c(C)c34)ccc2[nH]1" :
no (0)

Call for entry "Cc1cccc(-c2[nH]c(C(C)(C)C)nc2-c2ccc3nccnc3c2)n1" :
no (0)

Call for entry CCc1ccc(CCOc2ccc(CC3SC(=O)NC3=O)cc2)nc1 (stereo not given) :
no (0)
